Target: T1, GST-tagged TASK-3 C-terminal 15 residues fusion protein, phosphorylated with PKA catalytic subunit (human, UniProt Q9NPC2 360-374)
T1 chain: {GST}-SFTDHQRLMKRRK[pS]V
Assay: SPR
Non-standard residues stand in square brackets, D forms with d. No end group written: not given here. pS = N[C@@H](COP(=O)(O)O)C(=O)O
MEASUREMENT TYPE: Kd (nM)
A number alone suffices; assume nM.

Problem: // Kd lookup, key: 14-3-3τ (natural protein) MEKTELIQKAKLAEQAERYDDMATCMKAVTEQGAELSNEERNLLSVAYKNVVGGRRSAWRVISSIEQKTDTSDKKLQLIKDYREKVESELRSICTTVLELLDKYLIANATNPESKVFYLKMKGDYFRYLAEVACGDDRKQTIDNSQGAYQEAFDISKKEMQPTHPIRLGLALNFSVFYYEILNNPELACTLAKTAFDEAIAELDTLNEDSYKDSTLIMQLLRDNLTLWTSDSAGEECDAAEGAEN
Result: 246
